Ref: patent US8889876B2

Answer each item with its documented inhibition at 10 µM.
system: Hut78 T-cell Leukemia cell; assay: CCK-8 proliferation inhibition, Hut78; format: cell-based; conditions: Homo sapiens, HuT78, 10 μM, read-out: Hut-78 (inhibition %)

Some compounds with recorded inhibition at 10 µM:
COc1ccc(COC(=O)NCc2ccc(C(=O)Nc3ccncc3N)cc2)cc1    17.5%
Nc1cnccc1NC(=O)c1ccc(CNC(=O)OCc2ccc(F)cc2)cc1    22%
COc1ccc(/C=C/C(=O)NCc2ccc(C(=O)Nc3ccncc3N)cc2)cc1OC    12.9%

Now consider the entry below.
If you can, please state the reported inhibition at 10 µM value of COc1ccc(/C=C/C(=O)NCc2ccc(C(=O)Nc3ccncc3N)cc2)cc1 .
42.3%
